System: Burkholderia cepacia 1222
Test Protocol: Peptidase activity detection on Columbia agar containing substrate
Format: cell-based
Set-up: key: − = no fluorescence detected; e = trace of fluorescence; +/− = weak fluorescence; + = medium fluorescence; ++ = strong fluorescence; NG = No Growth
Condition: Burkholderia cepacia 1222; substrate 100 mg/l, 24 hours at 37° C., UV 360-365 nm
Property: fluorescence intensity

Compound	Assay Result
NCC(=O)Nc1ccccc1-c1nc2ccccc2o1 [Substrate 3]	+
COc1cc(NC(=O)CCN)c(-c2nc3ccccc3o2)cc1OC [Substrate 11]	+
C[C@H](N)C(=O)Nc1ccc(Cl)cc1-c1nc2ccccc2s1 [Substrate 19]	−
NCCC(=O)Nc1ccccc1-c1nc2ccccc2o1 [Substrate 2]	+
C[C@H](N)C(=O)Nc1ccccc1-c1nc2ccccc2s1 [Substrate 17]	+
C[C@H](N)C(=O)Nc1ccccc1-c1nc2ccccc2n1CCc1ccccc1 [Substrate 14]	−
C[C@H](N)C(=O)Nc1cc2c(cc1-c1nc3ccccc3n1CCc1ccccc1)OCO2 [Substrate 16]	++
NCCC(=O)Nc1ccccc1-c1nc2ccccc2s1 [Substrate 18]	NG

Ask: For the compound C[C@H](N)C(=O)Nc1ccccc1-c1nc2cc(Cl)ccc2o1 [Substrate 4] , what fluorescence intensity is on record?
Result: −

Ask: For the compound C[C@H](N)C(=O)Nc1ccccc1-c1nc2ccccc2o1 [Substrate 1] , what fluorescence intensity is on record?
Result: −
